For each of the binders below, state its OD450.
# Study System: T1, recombinant Fc-KAAG1 fusion protein (full-length KAAG1) (human, UniProt Q9UBP8 1-84, biotinylated with NHS-biotin (sites not given))
# T1 construct: also called recombinant human KAAG1; not shown: human Fc domain encoded by expression plasmid pYD5; vector-encoded residues between the Fc and the BamHI cloning site of pYD5
# T1 sequence: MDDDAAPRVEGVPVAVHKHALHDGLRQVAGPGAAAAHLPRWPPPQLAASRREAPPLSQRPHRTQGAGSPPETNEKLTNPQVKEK
# Test Summary: ELISA
# Experimental: The 96-well master plate of monoclonal preparations contained different concentrations of purified anti-KAAG1 Fabs in each well. […] Bound antibody was detected with HRP-conjugated mouse anti-kappa light chain antibody in the presence of TMB liquid substrate (Sigma-Aldrich Canada Ltd., Oakville, ON) and readings were conducted at 450 nm in microtiter plate reader.
No unit in the answer, please; the number alone is enough.

// OD450 value for 3D3 mouse anti-KAAG1 Fab (Fab, V domains shown, Recombinant mouse Fab prepared from E. coli, from Omniclonal AL0003Z1; also called 3D3 Fab) VH: EVQLQQSVAELVRPGASVTLSCKASGYIFTDYEIHWVKQTPVHGLEWIGVIDPETGNTAFNQKFKGKATLTADISSSTAYMELSSLTSEDSAVYYCMGYSDYWGQGTTLTVSS VL: DIVMTQSPSSLAVSIGQKVTMNCKSSQSLLNSNFQKNFLAWYQQKPGQSPKLLIYFASTRESSIPDRFIGSGSGTDFTLTISSVQAEDLADYFCQQHYSTPLTFGAGTKLELK : 1.21

// OD450 value for 3G10 mouse anti-KAAG1 Fab (Fab, V domains shown, Recombinant mouse Fab prepared from E. coli; also called 3G10 Fab; well G10) VH: EIQLQQSGPELVKPGASVKISCKASGYTFTDNYMNWVKQSHGKSLEWIGDINPYYGTTTYNQKFKGKATLTVDKSSRTAYMELRGLTSEDSAVYYCARDDWFDYWGQGTLVTVSA VL: DVLMTQTPRSLSVSLGDQASISCRSSQSLLHSNGNTYLEWYLQKPGQPPKVLIYKVSNRFSGVPDRFSGSGSGTDFTLKISGVEAEDLGVYYCFQGSHVPLTFGAGTKLELK : 2.78
